Test: Stability in mouse plasma
Format: in vitro ADME
Settings: 37 °C, read-out: Plasma stability m (t1/2)
QUANTITY MEASURED: half-life at 10 μM (h)
Provide the reading as a plain figure in h.

Provide one value: measured half-life at 10 μM of O=C(C[C@@H](Cc1ccc2ccccc2c1)n1cc(CNC(=O)c2ccc(F)cc2)nn1)NO 24

====

Test: Microsomal stability
Type: in vitro ADME
Conditions: male, CD-1, pH 7.4, mouse liver microsomes, read-out: Microsomal stability m (t1/2)
QUANTITY MEASURED: half-life at 1 μM

Provide one value: measured half-life at 1 μM of O=C(C[C@@H](Cc1ccc2ccccc2c1)n1cc(CNC(=O)c2ccc(F)cc2)nn1)NO [Compound 1] 20 min

====

Molecular target: human NEP (Homo sapiens, UniProt P08473)
Sequence (P08473 whole entry): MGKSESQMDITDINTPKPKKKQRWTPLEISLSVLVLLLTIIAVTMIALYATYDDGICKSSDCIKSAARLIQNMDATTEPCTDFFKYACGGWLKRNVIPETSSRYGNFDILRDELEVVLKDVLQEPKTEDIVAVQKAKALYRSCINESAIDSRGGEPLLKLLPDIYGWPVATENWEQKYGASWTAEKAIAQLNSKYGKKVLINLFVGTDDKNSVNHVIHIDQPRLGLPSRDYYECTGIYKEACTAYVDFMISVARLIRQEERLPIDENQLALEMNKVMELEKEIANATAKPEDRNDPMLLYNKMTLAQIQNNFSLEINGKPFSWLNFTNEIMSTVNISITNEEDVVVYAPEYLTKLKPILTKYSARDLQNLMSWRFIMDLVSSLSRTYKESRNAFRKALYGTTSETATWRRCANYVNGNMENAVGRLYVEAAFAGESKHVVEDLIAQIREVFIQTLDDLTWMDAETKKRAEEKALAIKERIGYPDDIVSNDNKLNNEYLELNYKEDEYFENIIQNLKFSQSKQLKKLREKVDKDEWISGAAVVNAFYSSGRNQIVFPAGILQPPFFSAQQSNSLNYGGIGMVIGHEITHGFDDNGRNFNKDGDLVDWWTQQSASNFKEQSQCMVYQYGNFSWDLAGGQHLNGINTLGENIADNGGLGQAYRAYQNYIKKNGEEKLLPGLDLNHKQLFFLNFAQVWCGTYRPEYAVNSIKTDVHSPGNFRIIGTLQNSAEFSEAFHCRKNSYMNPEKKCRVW
QUANTITY MEASURED: IC50 (µM)
Provide the reading as a plain figure in µM.

Give IC50 for this entry on human NEP (Homo sapiens, UniProt P08473): O=C(C[C@@H](Cc1ccc2ccccc2c1)n1cc(CNC(=O)c2ccc(F)cc2)nn1)NO [Compound 1] 2.6

====

Test: Caco-2 permeation assay
Assay type: in vitro ADME
Conditions: human, Caco-2, A→B, 10 μM, 37 °C, pH 7.4/7.4
QUANTITY MEASURED: Papp A→B at 1 h, 10 μM (×10⁻⁶ cm/s)
Provide the reading as a plain figure in ×10⁻⁶ cm/s.

Provide one value: measured Papp A→B at 1 h, 10 μM of O=C(C[C@@H](Cc1ccc2ccccc2c1)n1cc(CNC(=O)c2ccc(F)cc2)nn1)NO [Compound 1] 2.4

====

Molecular target: hIDE (Homo sapiens)
Construct: made in house
Sequence (P14735 whole entry): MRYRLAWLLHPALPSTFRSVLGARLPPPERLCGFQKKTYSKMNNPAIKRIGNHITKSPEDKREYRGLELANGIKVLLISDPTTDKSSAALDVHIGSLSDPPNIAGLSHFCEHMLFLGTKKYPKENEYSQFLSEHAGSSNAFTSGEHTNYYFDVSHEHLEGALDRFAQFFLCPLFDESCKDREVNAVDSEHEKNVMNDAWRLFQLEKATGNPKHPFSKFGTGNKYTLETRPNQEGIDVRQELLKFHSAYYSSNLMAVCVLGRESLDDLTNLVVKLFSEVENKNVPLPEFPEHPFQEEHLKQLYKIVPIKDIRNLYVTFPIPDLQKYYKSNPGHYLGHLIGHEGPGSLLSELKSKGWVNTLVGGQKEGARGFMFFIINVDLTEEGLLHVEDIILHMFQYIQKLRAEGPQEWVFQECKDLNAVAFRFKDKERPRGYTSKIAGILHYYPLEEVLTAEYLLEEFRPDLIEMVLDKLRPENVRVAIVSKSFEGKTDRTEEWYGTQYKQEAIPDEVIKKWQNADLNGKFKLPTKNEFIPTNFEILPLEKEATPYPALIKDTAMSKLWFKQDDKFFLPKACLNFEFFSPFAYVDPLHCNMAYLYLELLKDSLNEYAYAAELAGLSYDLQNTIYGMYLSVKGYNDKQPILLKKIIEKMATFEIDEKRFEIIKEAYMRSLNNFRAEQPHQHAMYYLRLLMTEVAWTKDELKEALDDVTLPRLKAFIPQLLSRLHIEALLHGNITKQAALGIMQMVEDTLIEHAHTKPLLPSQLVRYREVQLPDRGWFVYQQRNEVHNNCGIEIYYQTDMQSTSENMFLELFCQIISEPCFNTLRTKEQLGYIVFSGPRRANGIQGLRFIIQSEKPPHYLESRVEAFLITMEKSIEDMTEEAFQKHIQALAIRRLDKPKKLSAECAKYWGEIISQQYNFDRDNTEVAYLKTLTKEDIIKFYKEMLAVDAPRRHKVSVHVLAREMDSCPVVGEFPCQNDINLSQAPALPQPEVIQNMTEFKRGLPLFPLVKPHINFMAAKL
Assay: In vitro hIDE inhibition of insulin hydrolysis
Format: biochemical
Conditions: full insulin substrate; value (CI 95%); mean of 3 to 10 experiments; read-out: IC50 insulin hydrolysis
pIC50: −log10 of the molar value.
Tick y if pIC50 is 6 or greater. Tick n if pIC50 is less than 6.

O=C(C[C@@H](Cc1ccc2ccccc2c1)n1cc(CNC(=O)c2ccccc2)nn1)NO [Compound 2]
y
Cc1ccc(C(=O)NCc2cn(C(CC(=O)NO)Cc3ccccc3)nn2)cc1 (centres unmarked) [Compound 10]
n

Answer whether pIC50 of O=C(C[C@H](Cc1ccc2ccccc2c1)n1cc(CNC(=O)c2ccc(F)cc2)nn1)NO [Compound 15] is greater than or equal to 6. n

Answer whether pIC50 of O=C(C[C@@H](Cc1ccc2ccccc2c1)c1nc(CNC(=O)c2ccc(F)cc2)no1)NO [Compound 12] is greater than or equal to 6. n

Answer whether pIC50 of O=C(O)C[C@@H](Cc1ccc2ccccc2c1)n1cc(CNC(=O)c2ccc(F)cc2)nn1 [Compound 14] is greater than or equal to 6. n

Answer whether pIC50 of O=C(C[C@@H](Cc1ccc2ccccc2c1)n1cc(CNS(=O)(=O)c2ccc(F)cc2)nn1)NO [Compound 9] is greater than or equal to 6. n

Answer whether pIC50 of O=C(C[C@@H](Cc1ccc2ccccc2c1)n1cc(CNC(=O)C2CCCCC2)nn1)NO [Compound 5] is greater than or equal to 6. y

====

Experiment: Pharmacokinetics in mice, intraperitoneal
Format: in vivo
Settings: C57Bl6/N, mouse, plasma; 30 mg kg^−1, ip, male mice
QUANTITY MEASURED: Tmax
Just so you know, I need the unit written after the number.

Provide one value: measured Tmax of O=C(C[C@@H](Cc1ccc2ccccc2c1)n1cc(CNC(=O)c2ccc(F)cc2)nn1)NO 10 min

====

Molecular target: recombinant human ECE-1 (Homo sapiens, UniProt P42892)
Sequence (P42892 whole entry): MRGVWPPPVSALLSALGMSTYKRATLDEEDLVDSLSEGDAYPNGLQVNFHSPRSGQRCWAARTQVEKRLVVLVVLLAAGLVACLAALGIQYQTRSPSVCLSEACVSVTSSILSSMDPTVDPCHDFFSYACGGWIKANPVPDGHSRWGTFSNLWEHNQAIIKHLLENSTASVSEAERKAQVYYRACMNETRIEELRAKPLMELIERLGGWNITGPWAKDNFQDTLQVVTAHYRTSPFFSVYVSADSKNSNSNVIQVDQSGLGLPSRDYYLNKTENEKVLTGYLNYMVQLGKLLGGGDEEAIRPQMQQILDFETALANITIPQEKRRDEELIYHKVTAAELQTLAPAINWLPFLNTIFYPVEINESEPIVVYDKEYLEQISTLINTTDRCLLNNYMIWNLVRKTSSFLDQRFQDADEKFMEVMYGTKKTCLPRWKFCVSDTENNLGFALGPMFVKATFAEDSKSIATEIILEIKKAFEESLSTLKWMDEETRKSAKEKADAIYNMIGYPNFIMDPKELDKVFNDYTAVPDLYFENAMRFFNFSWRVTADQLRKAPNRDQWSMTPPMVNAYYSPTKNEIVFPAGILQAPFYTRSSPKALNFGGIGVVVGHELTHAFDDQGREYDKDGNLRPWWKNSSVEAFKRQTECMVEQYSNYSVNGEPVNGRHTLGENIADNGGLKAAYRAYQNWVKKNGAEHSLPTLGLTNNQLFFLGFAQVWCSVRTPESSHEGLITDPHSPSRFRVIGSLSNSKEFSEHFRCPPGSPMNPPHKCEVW
Assay: Endothelin-converting enzyme inhibition (CEREP)
Conditions: means of two experiments minimum, s.d.±10%; read-out: Selectivity IC50 hECE
QUANTITY MEASURED: pIC50
Give only the number. pIC50 is defined as minus log10 of concentration in molar units.

Give pIC50 for this entry on recombinant human ECE-1 (Homo sapiens, UniProt P42892): O=C(C[C@@H](Cc1ccc2ccccc2c1)n1cc(CNC(=O)c2ccc(F)cc2)nn1)NO 5.19

====

Test: Pharmacokinetics in mice, intraperitoneal
Assay type: in vivo
Conditions: C57Bl6/N, mouse, plasma; 30 mg kg^−1, ip, male mice
QUANTITY MEASURED: half-life (min)
Provide the reading as a plain figure in min.

Provide one value: measured half-life of O=C(C[C@@H](Cc1ccc2ccccc2c1)n1cc(CNC(=O)c2ccc(F)cc2)nn1)NO [Compound 1] 80

====

Test: Caco-2 permeation assay
Type: in vitro ADME
Details: human, Caco-2, B→A, 10 μM, 37 °C, pH 7.4/7.4
QUANTITY MEASURED: Papp B→A at 1 h, 10 μM (×10⁻⁶ cm/s)
Provide the reading as a plain figure in ×10⁻⁶ cm/s.

Provide one value: measured Papp B→A at 1 h, 10 μM of O=C(C[C@@H](Cc1ccc2ccccc2c1)n1cc(CNC(=O)c2ccc(F)cc2)nn1)NO [Compound 1] 17

====

// values below are reported pIC50
Molecular target: hIDE (Homo sapiens)
Construct: made in house
Test: In vitro hIDE inhibition of Aβ16–23-based substrate hydrolysis
Type: biochemical
Description: In vitro IDE activity was measured with a quenched substrate […]. Human recombinant IDE was cloned and purified as previously described. […] All measurements were carried out as 8-point dose response curves and reported as the average of at least three independent measurements. […] Data analysis was performed using Xlfit v 5.0 and GraphPad Prism v 4.0. Nonlinear curve fitting and statistical analysis was done using built-in functions.
Give only the number. pIC50 is defined as minus log10 of concentration in molar units.

For orientation, consider the following solved cases.
Cc1ccc(C(=O)NCc2cn([C@@H](CC(=O)NO)Cc3ccc4ccccc4c3)nn2)cc1
5.57
O=C(CC(Cc1ccccc1)n1cc(CNC(=O)c2ccc(F)cc2)nn1)NO (stereo not shown)
4.10
O=C(CC(Cc1ccc2ccccc2c1)c1nc(CNC(=O)c2ccccc2)no1)NO (stereo not shown)
4.13
O=C(C[C@@H](Cc1ccc2ccccc2c1)n1cc(CNC(=O)C2CCCCC2)nn1)NO
6.10
O=C(C[C@@H](Cc1ccc2ccccc2c1)n1cc(CNC(=O)c2ccc(F)cc2)nn1)NO
6.52

Provide one value: measured pIC50 of Cc1ccc(CC(=O)NCc2cn([C@@H](CC(=O)NO)Cc3ccc4ccccc4c3)nn2)cc1 4.92

Provide one value: measured pIC50 of O=C(C[C@@H](Cc1ccc2ccccc2c1)n1cc(CNS(=O)(=O)c2ccc(F)cc2)nn1)NO 5.24

Provide one value: measured pIC50 of O=C(C[C@@H](Cc1ccc2ccccc2c1)n1cc(CNC(=O)c2ccccc2)nn1)NO 6.15

====

Assay: Caco-2 permeation assay
Type: in vitro ADME
Conditions: human, Caco-2, B→A, 1 μM, 37 °C, pH 7.4/7.4
QUANTITY MEASURED: Papp B→A at 1 h, 1 μM (×10⁻⁶ cm/s)
Provide the reading as a plain figure in ×10⁻⁶ cm/s.

Provide one value: measured Papp B→A at 1 h, 1 μM of O=C(C[C@@H](Cc1ccc2ccccc2c1)n1cc(CNC(=O)c2ccc(F)cc2)nn1)NO 19

====

Biological target: Recombinant human MMP-1 (Homo sapiens, UniProt P03956)
Construct: host or cells: E. coli
Sequence (P03956 100-469): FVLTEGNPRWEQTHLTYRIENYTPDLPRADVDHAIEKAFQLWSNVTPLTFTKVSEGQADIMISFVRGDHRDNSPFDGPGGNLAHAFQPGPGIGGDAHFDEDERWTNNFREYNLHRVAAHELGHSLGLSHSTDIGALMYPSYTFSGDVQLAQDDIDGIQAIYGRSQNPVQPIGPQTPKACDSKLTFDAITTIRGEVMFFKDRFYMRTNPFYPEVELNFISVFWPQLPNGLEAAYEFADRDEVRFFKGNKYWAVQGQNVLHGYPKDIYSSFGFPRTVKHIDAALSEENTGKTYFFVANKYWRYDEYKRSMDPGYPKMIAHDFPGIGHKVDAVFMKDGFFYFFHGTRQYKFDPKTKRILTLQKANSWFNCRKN
Assay: Matrix metalloprotease 1 inhibition (CEREP)
Assay type: biochemical
Conditions: means of two experiments minimum, s.d.±10%; read-out: Selectivity IC50 hMMP-1
QUANTITY MEASURED: pIC50
Give only the number. pIC50 is defined as minus log10 of concentration in molar units.

Give pIC50 for this entry on Recombinant human MMP-1 (Homo sapiens, UniProt P03956): O=C(C[C@@H](Cc1ccc2ccccc2c1)n1cc(CNC(=O)c2ccc(F)cc2)nn1)NO 5.00

====

Assay: Pharmacokinetics in mice, intraperitoneal
Type: in vivo
Conditions: C57Bl6/N, mouse, plasma; 30 mg kg^−1, ip, male mice; read-out: AUC0→4h
QUANTITY MEASURED: AUC(0-t)
Just so you know, I need the unit written after the number.

Provide one value: measured AUC(0-t) of O=C(C[C@@H](Cc1ccc2ccccc2c1)n1cc(CNC(=O)c2ccc(F)cc2)nn1)NO 4270 ng·h/mL
